Molecular target: UniProt Q9H228
Sequence (Q9H228 whole entry): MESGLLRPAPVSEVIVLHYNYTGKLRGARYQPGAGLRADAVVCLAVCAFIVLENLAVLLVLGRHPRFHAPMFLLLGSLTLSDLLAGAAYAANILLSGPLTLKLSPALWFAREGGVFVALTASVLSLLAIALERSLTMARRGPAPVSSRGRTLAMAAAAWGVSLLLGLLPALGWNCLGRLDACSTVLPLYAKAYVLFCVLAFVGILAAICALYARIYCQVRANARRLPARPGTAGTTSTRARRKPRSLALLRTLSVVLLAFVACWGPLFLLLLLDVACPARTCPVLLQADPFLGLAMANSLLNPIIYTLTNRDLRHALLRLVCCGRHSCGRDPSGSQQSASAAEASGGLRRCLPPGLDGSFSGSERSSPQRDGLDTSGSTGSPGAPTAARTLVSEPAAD
Test: Agonist activity at S1P5 receptor assessed as induction of [35S]GTP-gamma-S binding
measurement-label: EC50 (µM)

Worked examples, 6 compounds total:
[
  {
    "chemical-structure": "Cc1cc(CCC(=O)O)ccc1-c1cnc(-c2ccc(OC(C)C)c(C#N)c2)s1",
    "measurement-label": "EC50",
    "result": 0.2
  },
  {
    "chemical-structure": "Cc1cc(CCC(=O)O)ccc1-c1noc(-c2cnc(OC(C)C)c(Cl)c2)n1",
    "measurement-label": "EC50",
    "result": 0.95
  },
  {
    "chemical-structure": "Cc1cc(CCC(=O)O)ccc1-c1nnc(-c2cnc(OC(C)C)c(Cl)c2)s1",
    "measurement-label": "EC50",
    "result": 1.3
  },
  {
    "chemical-structure": "Cc1cc(CCC(=O)O)ccc1-c1ncc(-c2ccc(OC(C)C)c(C#N)c2)s1",
    "measurement-label": "EC50",
    "result": 0.12
  },
  {
    "chemical-structure": "Cc1cc(CCC(=O)O)ccc1-n1nnc(-c2ccc(OC(C)C)c(C#N)c2)n1",
    "measurement-label": "EC50",
    "result": 0.15
  },
  {
    "chemical-structure": "Cc1cc(CCC(=O)O)ccc1-c1nnn(-c2ccc(OC(C)C)c(C#N)c2)n1",
    "measurement-label": "EC50",
    "result": 0.043
  }
]

1. Cc1cc(CCC(=O)O)ccc1-c1noc(-c2ccc(OC(C)C)c(Cl)c2)n1
2. Cc1cc(CCC(=O)O)ccc1-c1noc(-c2ccc(OC(C)C)c(C#N)c2)n1
INPUT: Between item 1 and item 2 , which reported EC50 is smaller? Bench note: the answer is the label of the chosen record.
OUTPUT: 2

I. Cc1cc(CCC(=O)O)ccc1-c1cc(-c2ccc(OC(C)C)c(C#N)c2)cs1
II. Cc1cc(CCC(=O)O)ccc1-c1ccc(-c2ccc(OC(C)C)c(C#N)c2)s1
INPUT: Between item I and item II , which reported EC50 is smaller? Bench note: the answer is the label of the chosen record.
OUTPUT: II

A. Cc1cc(CCC(=O)O)ccc1-c1csc(-c2ccc(OC(C)C)c(C#N)c2)c1
B. Cc1cc(CCC(=O)O)ccc1-c1nnc(-c2ccc(OC(C)C)c(C#N)c2)o1
INPUT: Between item A and item B , which reported EC50 is smaller? Bench note: the answer is the label of the chosen record.
OUTPUT: B

----------
Test: Oral bioavailability in rat
Assay type: ADME, organism-based
Conditions: in vivo
measurement-label: bioavailability (%)
Kindly answer with a numeric value in %, unit omitted.

bioavailability recorded for this compound, Cc1cc(CCC(=O)O)ccc1-c1ncc(-c2ccc(OC(C)C)c(C#N)c2)s1 , is 39

----------
Target: Sphingosine 1-phosphate receptor 1 (Homo sapiens, UniProt P21453)
Sequence (P21453 whole entry): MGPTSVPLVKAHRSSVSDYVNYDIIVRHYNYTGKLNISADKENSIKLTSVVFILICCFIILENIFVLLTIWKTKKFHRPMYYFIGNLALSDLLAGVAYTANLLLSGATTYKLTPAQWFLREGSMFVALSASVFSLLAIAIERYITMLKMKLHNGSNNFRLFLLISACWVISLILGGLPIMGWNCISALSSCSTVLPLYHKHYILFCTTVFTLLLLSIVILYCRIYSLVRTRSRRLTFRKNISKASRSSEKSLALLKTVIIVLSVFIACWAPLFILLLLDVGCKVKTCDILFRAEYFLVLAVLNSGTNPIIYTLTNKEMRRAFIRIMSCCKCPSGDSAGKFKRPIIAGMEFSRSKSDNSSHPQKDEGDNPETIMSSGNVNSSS
Assay: Agonist activity at S1P1 receptor assessed as induction of [35S]GTP-gamma-S binding
pEC50: −log10 of the molar value.
measurement-label: pEC50

[
  {
    "molecule": "COc1ccc(-c2nnc(-c3ccc(CCC(=O)O)cc3C)s2)cc1C#N",
    "assay-target": "Sphingosine 1-phosphate receptor 1 (Homo sapiens, UniProt P21453)",
    "pEC50": 7.01
  }
]

a. Cc1cc(CCC(=O)O)ccc1-c1ncc(-c2ccc(OC(C)C)c(C#N)c2)o1
b. Cc1cc(CCC(=O)O)ccc1-c1nnc(-c2ccc(-c3cccs3)c(C#N)c2)s1
c. Cc1cc(CCC(=O)O)ccc1-c1nnc(-c2ccc(OCC3CC3)c(C#N)c2)s1
INPUT: Task field, ranking: reported pEC50, descending order. Enter labels, ranked according to the request.
OUTPUT: c, b, a

I. CCCOc1ccc(-c2nnc(-c3ccc(CCC(=O)O)cc3C)s2)cc1C#N
II. Cc1cc(CCC(=O)O)ccc1-c1ncc(-c2ccc(OC(C)C)c(C#N)c2)s1
III. Cc1cc(CCC(=O)O)ccc1-c1nnc(-c2ccc(OCC(=O)O)c(C#N)c2)s1
IV. Cc1cc(CCC(=O)O)ccc1-c1nnc(-c2ccc(OCC(F)(F)F)c(C#N)c2)s1
V. Cc1cc(CCC(=O)O)ccc1-c1nnc(-c2ccc(OC(C)C)c(C#N)c2)o1
INPUT: Please produce an ascending ranking of these molecules based on pEC50. Enter labels, ranked according to the request.
OUTPUT: III, I, V, IV, II
(III: 6.44, I: 8.47, V: 8.96, IV: 9.22, II: 9.74)

I. Cc1cc(CCC(=O)O)ccc1-c1noc(-c2cnc(OC(C)C)c(Cl)c2)n1
II. CCC(C)Oc1ccc(-c2nnc(-c3ccc(CCC(=O)O)cc3C)s2)cc1C#N (stereo not given)
III. Cc1cc(CCC(=O)O)ccc1-c1nnc(-c2cnc(OC(C)C)c(Cl)c2)o1
IV. Cc1cc(CCC(=O)O)ccc1-c1csc(-c2ccc(OC(C)C)c(C#N)c2)c1
INPUT: Please produce an ascending ranking of these molecules based on pEC50. Enter labels, ranked according to the request.
OUTPUT: IV, III, I, II
(IV: 5.92, III: 7.72, I: 9.14, II: 9.55)

I. Cc1cc(CCC(=O)O)ccc1-c1cnc(-c2ccc(OC(C)C)c(C#N)c2)s1
II. Cc1cc(CCC(=O)O)ccc1-c1nnc(-c2ccc(F)c(C#N)c2)s1
INPUT: Between item I and item II , which reported pEC50 is smaller? Bench note: the answer is the label of the chosen record.
OUTPUT: II
(II: 6.24, I: 7.85)

1. Cc1cc(CCC(=O)O)ccc1-c1nnc(-c2ccc(OC(CF)CF)c(C#N)c2)s1
2. CC(=O)Oc1ccc(-c2nnc(-c3ccc(CCC(=O)O)cc3C)s2)cc1C#N
3. Cc1cc(CCC(=O)O)ccc1-c1nnn(-c2ccc(OC(C)C)c(C#N)c2)n1
INPUT: Please produce an ascending ranking of these molecules based on pEC50. Enter labels, ranked according to the request.
OUTPUT: 2, 3, 1
(2: 7.03, 3: 8.80, 1: 9.64)

Data origin, for the record: ChEMBL document CHEMBL1138961
